Consider the following compounds; for each one, report its Herbicidal rating.
System: Barnyardgrass
Test: Pre-emergent herbicidal activity (Table III); further: ranges in brackets are in %
Format: in vivo
Settings: 5.6 kg/ha

Summary for this compound, COc1cccc(C)c1N(Cn1c(=O)sc2ccccc21)C(=O)CCl : Herbicidal rating is 3 (75-100)

Summary for this compound, CC1=C(N(Cn2c(=O)sc3ccc(Cl)cc32)C(=O)CCl)C(C)CCC1 (stereo not drawn) : Herbicidal rating is 1 (25-49)

Summary for this compound, CC1=C(N(Cn2c(=O)sc3ccccc32)C(=O)CCl)C(C)CCC1 (stereo not drawn) [Example 1] : Herbicidal rating is 3 (75-100)

Summary for this compound, CC1=C(N(Cn2c(=O)sc3ccccc32)C(=O)CCl)C(C)CCC1 (stereo not drawn) [Example 9] : Herbicidal rating is 3 (75-100)

Summary for this compound, CCc1cccc(CC)c1N(Cn1c(=O)sc2ccccc21)C(=O)CCl : Herbicidal rating is 3 (75-100)

Summary for this compound, CC1=C(N(Cn2c(=O)sc3ccccc32)C(=O)CCl)CCCC1 : Herbicidal rating is 3 (75-100)
